We begin with a simple list: items and their reported %Inh.
- System: MAP4K4;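 note: KINOMEscan kinase panel screen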
- Particulars: concentration: 1 μM, replicates: in singlicate; n = 1
State just the number; it will be interpreted in %.

Example compounds with recorded %Inh:
1. Cc1ccc(NC(=O)Nc2cccc(Cl)c2)cc1-c1ccc(C(=O)Nc2ccncc2)cc1    0
2. O=c1cc(N2CCOCC2)nc2n(Cc3cccc(Cl)c3Cl)ccn12    4
3. Cc1ccc(C(=O)Nc2ccc(Nc3ccnc4cc(-c5ccccn5)ccc34)cc2O)cc1.Cl    0

Sample "CS(=O)(=O)c1ccc(-c2c(-c3ncn[nH]3)sc(N3CCOCC3)c2C#N)cc1" ; %Inh observed: 0

Provenance of the data: paper PMC5540273
